- ASSAY_INFO: Plasma pharmacokinetics after single and multiple oral doses (LC-MS/MS, non-compartmental analysis)
- Type: in vivo, human
- EXPERIMENTAL_SETUP: human, plasma, po, 750 mg, multiple oral dose of 750 mg, Day 28, n = 11; read-out: tmax, median
MEASURED_METRIC: Tmax (h)

[
  {
    "RECORD_SMILES": "N#CC1(c2ccc(NC(=O)c3cccnc3NCc3ccncc3)cc2)CCCC1",
    "QUANTITATIVE_RESULT": 4
  }
]
